Molecular target: GR (Homo sapiens, UniProt P04150)
Construct: expressed in transfected cells; host or cells: AD293
Sequence (P04150 whole entry): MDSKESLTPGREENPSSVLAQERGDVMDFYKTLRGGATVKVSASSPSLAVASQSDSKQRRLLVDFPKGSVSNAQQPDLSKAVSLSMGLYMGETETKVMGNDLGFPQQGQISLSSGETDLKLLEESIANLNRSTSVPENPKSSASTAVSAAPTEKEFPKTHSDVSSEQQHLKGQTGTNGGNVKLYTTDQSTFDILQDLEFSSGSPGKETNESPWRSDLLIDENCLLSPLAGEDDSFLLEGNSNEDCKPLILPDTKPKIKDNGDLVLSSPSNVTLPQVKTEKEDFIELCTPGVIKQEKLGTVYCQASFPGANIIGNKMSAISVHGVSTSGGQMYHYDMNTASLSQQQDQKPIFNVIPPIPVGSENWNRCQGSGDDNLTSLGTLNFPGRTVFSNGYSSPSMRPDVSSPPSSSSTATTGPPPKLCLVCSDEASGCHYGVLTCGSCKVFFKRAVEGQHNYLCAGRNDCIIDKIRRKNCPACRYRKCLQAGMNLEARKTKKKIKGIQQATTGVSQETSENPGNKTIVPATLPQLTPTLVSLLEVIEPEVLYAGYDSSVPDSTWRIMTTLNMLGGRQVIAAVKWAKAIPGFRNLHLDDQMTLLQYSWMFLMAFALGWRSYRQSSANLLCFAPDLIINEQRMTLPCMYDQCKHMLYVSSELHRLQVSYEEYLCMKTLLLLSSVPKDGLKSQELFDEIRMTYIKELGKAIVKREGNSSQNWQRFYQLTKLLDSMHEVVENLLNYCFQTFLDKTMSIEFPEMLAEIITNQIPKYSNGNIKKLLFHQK
Assay: NF-κB-Luc repression reporter assay in AD293 cells
Type: cell-based
Settings: TNFα 2 ng ml^-1
Assignment: determine reported pIC50 for the given compounds.
One number for each entry, as −log10 of the molar value.

1) CON(C)C(=O)C1(OC(=O)c2ccco2)C(C)CC2C3CC(F)C4=Cc5c(cnn5-c5ccccc5)CC4(C)C3(F)C(O)CC21C (centres unmarked) | 10.10

Exercise: Entry CON(C)C(=O)C1(OC(=O)c2ccco2)CCC2C3CCC4=Cc5c(cnn5-c5ccccc5)CC4(C)C3C(O)CC21C (centres unmarked) has what pIC50?
Solution: 10.00
